Values were extracted from ChEMBL document CHEMBL1133893.

Subject of test: Prostaglandin E2 receptor EP1 subtype (Mus musculus, UniProt P35375)
Sequence (P35375 whole entry): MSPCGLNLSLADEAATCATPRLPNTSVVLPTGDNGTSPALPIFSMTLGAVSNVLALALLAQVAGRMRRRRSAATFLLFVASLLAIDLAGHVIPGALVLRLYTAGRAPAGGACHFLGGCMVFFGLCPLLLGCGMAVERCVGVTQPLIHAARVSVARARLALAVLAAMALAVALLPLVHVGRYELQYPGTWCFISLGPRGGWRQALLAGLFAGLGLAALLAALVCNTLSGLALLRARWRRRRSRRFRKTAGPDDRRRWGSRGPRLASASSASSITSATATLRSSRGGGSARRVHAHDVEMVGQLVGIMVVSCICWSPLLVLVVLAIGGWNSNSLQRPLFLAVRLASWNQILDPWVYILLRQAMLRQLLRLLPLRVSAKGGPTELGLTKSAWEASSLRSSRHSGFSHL
Protocol description: Evaluated for its competitive binding affinity towards mouse Prostanoid EP1 receptor in CHO cells expressing prostanoid receptor
pKi: −log10 of the molar value.
Measure: pKi

>>> readout_value("O=C(O)CSCCCS[C@H]1C(=O)C[C@@H](O)[C@@H]1/C=C/[C@@H](O)Cc1ccccc1")
5.59

a. CCCCC[C@H](O)/C=C/[C@H]1[C@H](O)CC(=O)[C@@H]1CCCCCCC(=O)O [ALPROSTADIL]
b. CCCCC[C@H](O)/C=C/[C@H]1[C@H](O)CC(=O)[C@@H]1SCCSCCC(=O)O
### Prompt Form field 'greater pKi' accepts a or b ; which applies? Record your answer as the label of the chosen record.
### Response a

a. CCCCC[C@H](O)/C=C/[C@H]1[C@H](O)CC(=O)[C@@H]1CSCCSCC(=O)O
b. CCCC[C@H](C)C[C@H](O)/C=C/[C@H]1[C@H](O)CC(=O)[C@@H]1SCCCCCC(=O)O
### Prompt I'm curious whether a or b has the smaller pKi number. Which is it? Record your answer as the label of the chosen record.
### Response a

A. CCCCC[C@H](O)/C=C/[C@H]1[C@H](O)CC(=O)[C@@H]1SCCCOCC(=O)O
B. CCCCC[C@H](O)/C=C/[C@H]1[C@H](O)CC(=O)[C@@H]1SCCCSCC(=O)O
C. COc1ccc(C[C@H](O)/C=C/[C@H]2[C@H](O)CC(=O)[C@@H]2SCCCSCC(=O)O)cc1
### Prompt // ascending sort on recorded pKi Rank them, then answer with their labels in that order.
### Response C, A, B
